System: MS2 coat protein
Protocol details: apparent KD of MS2 coat protein; designed switch direction (-1 OFF switch, 1 ON switch): 1; higher = weaker reporter binding
Test parameters: input ligand: microRNA oligo, concentration not stated
Property name: apparent KD of MS2 coat protein (nM)
Entry rule: numbers only, all in nM.

Form field apparent KD of MS2 coat protein, entry GAGGGACAGACCAACAUGAGGAUCACCCAUGUCCUCGCAGGUCAGGAUAUCCGGCCAACAGGCAAGGAGAAGGGACGGUGAACC (Eterna round: R96, puzzle: Same State NG 3) : 344

apparent KD of MS2 coat protein measured on GUAACAUGACGAGGAUAUGGAACAUGAGGAUCACCCAUGUAUGUUCCAUAACGCGAAUAAAGAAUCCAGAAGGCGUCGUGAAAU [Mat - Same State NG 2 - JL mod - D33] (Eterna round: R96, puzzle: Same State NG 2) = 118

apparent KD of MS2 coat protein recorded for this sequence, GCUCGAUGAGCGAUUUACAUGAGGAUCACCCAUGUACGUGGGCAGGAUAUUUACGUGCGGUGUGUAGAGAAGGGCCCAUCGAGC [SameState NG3 #71] (Eterna round: R96, puzzle: Same State NG 3) , is 206

Note to self: apparent KD of MS2 coat protein recorded for GGACGUCAACUCAACAAUUAAACAUGAGGAUCACCCAUGUCACAGGAUAUGGAUCCUAAUUGGAUCCAGAAGGGUGAGACGUCC [Fiskers NG3ss - 42] (Eterna round: R96, puzzle: Same State NG 3) was 100

The sequence GGUGCCAAUAAAGCCUACAUGAGGAUCACCCAUGUAUGUAGGCAGGAUAUCGUAUGCAAAGCAUACGAGAAGGGCCGAGGCACC [Mat - Same State NG 3 - JL Mod - D56] (Eterna round: R96, puzzle: Same State NG 3) showed apparent KD of MS2 coat protein equal to 29.1

###

Tested on: MS2 coat protein
Protocol details: apparent KD of MS2 coat protein; higher = weaker reporter binding
Test parameters: Eterna round: R107; input ligand: tryptophan 2.4 mM
Can you tell me apparent KD of MS2 coat protein for the items I'm about to list?
Hi! Could you send only the number? It should be in nM, unit omitted.

Recorded apparent KD of MS2 coat protein (sequence AUAUGGCGAGAUGAUACCAGACACAUGAGGAUCACCCAUGUUGAUGGUAAGUCUGCAUAUGUCCCUUGGCAGCAUAGCGACAUAU [X-TheoB-ms2@23] ): 8.34

Reported apparent KD of MS2 coat protein ( AAUUACAUGAGGAUCACCCAUGUGGCACAACGAGGACCGGUACGGCCGCCACUCGGUGCUGUACCACAAAACAUGCACGGGAAAG [theeternabot_sameState_MS2_Trp_A_6] ) = 30.9

GET /value?item= AAUAAUAAGGCGGCCGCCACUAAACAUGAGGAUCACCCAUGUCUCGAGCGCUUGCGUUUGGGAAGUAGGACCGGGCCAAUAAUAA [Exclusion - Tryptophan B (Freestyle 5)] &field=apparent KD of MS2 coat protein returns 14.2

Lab note: measured apparent KD of MS2 coat protein of ACGAUAGGACUUGAGGAUCACCCAGGUGAUACCAGCCUGGAAACAGGCCCUUGGCAGCACUAAUACUCCAAUAACCUAUCGAAUA [TheoAX 16 #MicroSwitchBubble #AlternativeMS2] was 332

UGACAUUGCUCAGAUACCAGACAUGAGGAUCACCCAUGUACCAAGGUAAAGAAAUAACGUGUCCCUUGGCAGCUGAGCAAUGUCU [TheoBX 1 #MS2Left #Theo2] has a reported apparent KD of MS2 coat protein of 10.4

###

Assignment: determine reported apparent KD of MS2 coat protein for the given sequences.
Test system: MS2 coat protein
Protocol details: apparent KD of MS2 coat protein, switch ON state; designed switch direction (-1 OFF switch, 1 ON switch): 1; higher = weaker reporter binding
Test parameters: FMN input: 0 or 200 uM; Eterna round: R93 (includes R88 designs)
Please give a number only; it is taken to be in nM.

Recorded result, AAAAUAAAAAGGUAGGAUAUGGGUAAAACUACAUGAGGAUCACCCAUGUAAUAAAAAGAAAAAAACCAGAAGGACCAAAAUAAAA [72%, More Wateronthemoon, 8] , apparent KD of MS2 coat protein: 13.2

What the record says about AAUAAACAUGAGGAUCACCCAUGUACCGACCACUAAGGAUAUGGGCGAAUAACAGCUCGGCCAGAAGGUAGAGGUG [Gebimarabi] : apparent KD of MS2 coat protein is 46.7

response.value for GGGAGACAUGAGGAUCACCCAUGUGAGAAGAGGCGAGGAUAUCGAAAAAAAAAAAAAAAACGAGAAGGCGCGAGAU [salish99-SS1-004] (field: apparent KD of MS2 coat protein) = 74.4

apparent KD of MS2 coat protein for AACAAUCUAUCUGAGGAUAUCAUGACAAAGACAUGAGGAUCACCCAUGUGCAGGAAAACUGCUUAUGAGAAGGCAGAUAGAUUGA [SS2: 1113] is 11

Just so you know, measured apparent KD of MS2 coat protein for UUUAAUUAUACGAAGGAUAUCGAUAAUAAGACAUGAGGAUCACCCAUGUAAUAUUUUUCCAUAUUCGAGAAGGUCGCGGGUGAAC [JR_SS002_Sub601] came out at 25

Please fill in: apparent KD of MS2 coat protein reported for AGAAGGUGGGUCGAGGAUAUCAGGCACGCCACAUGAGGAUCACCCAUGUUUUUGGCACCGCCCAAUGAGAAGGUGAACACCUUCA [Cesobe] = 9.34

###

System: MS2 coat protein
Protocol details: apparent KD of MS2 coat protein; higher = weaker reporter binding
Test parameters: Eterna round: R107; input ligand: theophylline 2 mM
Property name: apparent KD of MS2 coat protein (µM)
Answer with a number only, understood to be in µM.

In plain terms, UUCAGCUAGUCGGCCGCCACUACUUGAGGAUCACCCAAGUAAUCCUAACACUGCUUCGGCAGUGGUAGGACCGGGACUAGCUGAG has a documented apparent KD of MS2 coat protein of 0.0115

Documented apparent KD of MS2 coat protein of ACAUGAGGAUCACCCAUGUAGCCUAGGGAAGGAGCGGCGUAAGAGCCAGGUAGGUCGCCCGCAUGAGGAUCACCCAUGUCGAGGG [Same State Arginine A GF10] : 0.0331

// field: apparent KD of MS2 coat protein; key: ACAUGAGGAUCACCCAUGUAGCCUAGGGAAGGAGCGUCGUAAGAGACAGGUAGGUCGCCCGCAUGUGGAUCACCCAUGUCGAGGG [SSArg A #11] ; value = 0.0436

Lab note: measured apparent KD of MS2 coat protein of AGCCACUCGAGUGAUCCUCACGAGUGGCUACGAGGACCGGUACGGCCGCCACUCGAAUUAACAUGAGGAUCACCCAUGUAAUCAU [Brourdmod04] was 0.317

// field: apparent KD of MS2 coat protein; key: UGUAUGUGAUCUGAUACCAGAGUGAAUAACCUGAGGAUCACCCUGGUAAGGCGAAAGCCACUCCCUUGGCAGCAGAUCGCAUACU ; value = 0.0266

Please fill in: apparent KD of MS2 coat protein reported for CGGACAUGAGGAUCACCCAUGUACACUGAAGGAGCGUCGAGAACGACAGGUAGGUCGCAGGUUGAGGAUGGUGAUGCUCAGGUAG [Exclusion Arginine A GF 3] = 0.0158

The reported apparent KD of MS2 coat protein of the sequence CGCCACAUGAGGAUCACCCAUGUAAUGGCGCGAGGACCGGUACGGCCGCCACUCGCCUGGCAGUGAGCGCAUGCGGCCUGGGUAU [Exclusion Tryp A GF9] was 0.0144

Please fill in: apparent KD of MS2 coat protein reported for UGUAUGGACUGAAGGAGCGGGUUGAUAAUCUGAGGAUCACCCAGGUAAAAGGCGAAAGCCACCCAGGUAGGUCGCAGUCCAUACU = 0.0418

UUGUGGCGCUCGGCCGCCACUCCGACAUGAGGAUCACCCAUGUUCUACAUGAGGAUCACCCAUGUGAGGACCGGGAGACACAACC [Exclusion Tryptophan B GF12] has a reported apparent KD of MS2 coat protein of 0.134

Please fill in: apparent KD of MS2 coat protein reported for UCACAUGAGGAUCACCCAUGUAAAGUUGAAGGAGCGAUCAUUAGGUCAGGUAGGUCGCAACACAUGAGGAUCACCCAUGUUGUCC [DOUBLE!!! :-D] = 0.0471

Summary for this sequence, UUUUUUAACUGAAGGAGCGUCACAUGAGGAUCACCCAUGUAUUAGAUGAGAAGGAUCUUGUGGCAGGUAGGUCGCAGAGGAAGGG [e-argB-V] : apparent KD of MS2 coat protein is 0.181

GET /value?item= AGACUGUAAAGUCUACCGGUCAACAAUAAUCGAGGACCGGUACGGCCGCCACUCGAUGUGAUAUACACAUGAGGAUCACCCAUGU [Tryptophan A 16] &field=apparent KD of MS2 coat protein returns 0.0197

Looking up AAGACGGUCGGAAGGAGCGGUACAUGAGGAUCACCCAUGUACCUCUGGGCAUCCGUAGUGUGCCAGGUAGGUCGCCGAUUGCGGG [Esorbevege] , I found its apparent KD of MS2 coat protein recorded as 0.0135

Form field apparent KD of MS2 coat protein, entry AACAUGAGGAUCACCCAUGUAAAACCGGUACGAGGACCGGUACGGCCGCCACUCGAAACAUGAGGAUCACCCAUGUAAUAAUAUU [Same State Trypophan A GF 21] : 0.0686

apparent KD of MS2 coat protein reported for this sequence AUACAUGAGGAUCACCCAUGUUAUAGUGAAGGAGCGACAUUUAUGUCAGGUAGGUCGCACUGUUGUUUAAUGAUUCUUGGAUCUU [#20 Exclusion - Arginine A] : 0.0141

Entry AGUCCUCUGUACCCUGAUGCCCUCACUUUACGAGGACCGGUACGGCCGCCACUCGAAUCCCAACAUGAGGAUCACCCAUGUCGAC [theeternabot_exclusion_MS2_Trp_A_26] — recorded apparent KD of MS2 coat protein = 0.047

The sequence AAUAAUAAGGCGGCCGCCACUAAACAUGAGGAUCACCCAUGUCUCGAGCGCUUGCGUUUGGGAAGUAGGACCGGGCCAAUAAUAA [Exclusion - Tryptophan B (Freestyle 5)] showed apparent KD of MS2 coat protein equal to 0.0181

Entry UAAUAAAUAAAUCCAAGGUGAAGGUCAGAUACCAGCCAGAUAACUGGCCCUUGGCAGCUGAAUAAGCUUGAGGAUCACCCAAGUA [TheoAS 26 #OpenEnded #MS2Late #AlternativeMS2] ; apparent KD of MS2 coat protein = 0.275

Entry CCGUUCUCUGCGGCCGCCACUCAAGGAGCUACAUAGCUCCUAGACAUGAGGAUCACCCAUGUCGCGAGGACCGGGUAGAUUCUCC [Same State Typptophan B GF9] — recorded apparent KD of MS2 coat protein = 0.0642

Per the record, AAACAUGAGGAUCACCCAUGUGCUCCUGUCCGAGGACCGGUACGGCCGCCACUCGGUUCUCGGGAGGAUGGUCAAAGACUAUCCA [Omei Trp A SS B v10] has apparent KD of MS2 coat protein of 0.0578

Value of apparent KD of MS2 coat protein reported for the sequence AGAAUAUAAUAUAUCAAAGGUAUAACCGAAGGAGCGCCGAAUAAGGCAGGUAGGUCGCGGAAACAUGAGGAUCACCCAUGUCCAU [Arginine A Same State; Euphoria Solution 2] is 0.0166

Noted for GGAUUACGAAAGUAGUCCUCAAGUUCGAGACGAGGACCGGUACGGCCGCCACUCGAACAUGAGGAUCACCCAUGUAGCGAAAGCU [Tryptophan A 22] : its apparent KD of MS2 coat protein reads 0.425

Value of apparent KD of MS2 coat protein reported for the sequence ACGACAUGAGGAUCACCCAUGUACUCUGAAGGAGCGUCGAUUACGACAGGUAGGUCGCAGGCUAAGGAUGGUGAUGCUCAAGACG [Exclusion Arginine A GF8] is 0.114
